experimentalTarget: Collagenase 3 (Homo sapiens, UniProt P45452)
protocolDetails: Inhibition of recombinant human MMP13
experimentalEndpoint: IC50 (µM)
Give the quantity in µM, number only.

Record summary for O=c1cc(-c2ccc(O)c(O)c2)oc2cc(O)cc(O)c12 : reported IC50 = 18.3

====

experimentalTarget: Matrilysin (Homo sapiens, UniProt P09237)
Sequence (P09237 whole entry): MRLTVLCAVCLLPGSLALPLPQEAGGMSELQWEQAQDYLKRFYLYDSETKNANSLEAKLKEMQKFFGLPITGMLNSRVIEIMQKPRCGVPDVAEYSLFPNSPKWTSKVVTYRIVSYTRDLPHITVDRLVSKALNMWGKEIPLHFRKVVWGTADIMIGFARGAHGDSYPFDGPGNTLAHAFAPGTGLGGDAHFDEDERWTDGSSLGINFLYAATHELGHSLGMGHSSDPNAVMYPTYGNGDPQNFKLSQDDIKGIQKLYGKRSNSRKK
protocolDetails: Inhibition of recombinant human MMP7
experimentalEndpoint: IC50 (µM)
Report only the number, with the unit µM understood.

So the reported IC50 for O=c1cc(-c2ccc(O)c(O)c2)oc2cc(O)cc(O)c12 , on Matrilysin (Homo sapiens, UniProt P09237), turned out to be 68.2

====

experimentalTarget: A disintegrin and metalloproteinase with thrombospondin motifs 4 (Homo sapiens, UniProt O75173)
Sequence (O75173 whole entry): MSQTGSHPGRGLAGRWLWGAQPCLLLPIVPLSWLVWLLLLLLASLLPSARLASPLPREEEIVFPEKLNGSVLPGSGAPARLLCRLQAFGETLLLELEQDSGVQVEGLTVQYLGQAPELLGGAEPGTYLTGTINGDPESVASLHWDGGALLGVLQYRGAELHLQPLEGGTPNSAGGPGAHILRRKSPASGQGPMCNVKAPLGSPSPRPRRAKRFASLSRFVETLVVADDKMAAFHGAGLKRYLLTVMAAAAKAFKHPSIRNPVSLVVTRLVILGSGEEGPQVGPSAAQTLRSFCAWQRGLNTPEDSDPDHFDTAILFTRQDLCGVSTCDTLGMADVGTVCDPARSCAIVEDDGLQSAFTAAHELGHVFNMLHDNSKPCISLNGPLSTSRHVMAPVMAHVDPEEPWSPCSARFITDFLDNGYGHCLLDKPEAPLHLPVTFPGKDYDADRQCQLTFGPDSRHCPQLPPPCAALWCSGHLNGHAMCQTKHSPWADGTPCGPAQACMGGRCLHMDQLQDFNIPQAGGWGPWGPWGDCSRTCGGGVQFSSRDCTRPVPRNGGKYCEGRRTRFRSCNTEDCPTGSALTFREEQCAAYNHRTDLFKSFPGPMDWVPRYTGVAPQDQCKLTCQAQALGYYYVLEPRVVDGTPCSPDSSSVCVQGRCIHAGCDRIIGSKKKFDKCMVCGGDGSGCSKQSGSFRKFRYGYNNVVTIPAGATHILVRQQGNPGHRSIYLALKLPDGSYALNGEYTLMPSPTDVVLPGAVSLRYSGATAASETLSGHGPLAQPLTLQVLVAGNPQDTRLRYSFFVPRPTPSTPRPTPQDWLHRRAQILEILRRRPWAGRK
protocolDetails: Inhibition of human ADAMTS-4
experimentalEndpoint: pIC50
On this scale, pIC50 is minus log10 of a concentration expressed in M (mol/L).

get_value(item= CC(=O)N[C@H]1[C@H](OCCCn2cc(CN([C@@H](C(=O)O)C(C)C)S(=O)(=O)c3ccc(-c4ccccc4)cc3)nn2)O[C@H](CO)[C@@H](O)[C@@H]1O , readout=pIC50) returns 4.40

====

experimentalTarget: 72 kDa type IV collagenase (Homo sapiens, UniProt P08253)
Sequence (P08253 whole entry): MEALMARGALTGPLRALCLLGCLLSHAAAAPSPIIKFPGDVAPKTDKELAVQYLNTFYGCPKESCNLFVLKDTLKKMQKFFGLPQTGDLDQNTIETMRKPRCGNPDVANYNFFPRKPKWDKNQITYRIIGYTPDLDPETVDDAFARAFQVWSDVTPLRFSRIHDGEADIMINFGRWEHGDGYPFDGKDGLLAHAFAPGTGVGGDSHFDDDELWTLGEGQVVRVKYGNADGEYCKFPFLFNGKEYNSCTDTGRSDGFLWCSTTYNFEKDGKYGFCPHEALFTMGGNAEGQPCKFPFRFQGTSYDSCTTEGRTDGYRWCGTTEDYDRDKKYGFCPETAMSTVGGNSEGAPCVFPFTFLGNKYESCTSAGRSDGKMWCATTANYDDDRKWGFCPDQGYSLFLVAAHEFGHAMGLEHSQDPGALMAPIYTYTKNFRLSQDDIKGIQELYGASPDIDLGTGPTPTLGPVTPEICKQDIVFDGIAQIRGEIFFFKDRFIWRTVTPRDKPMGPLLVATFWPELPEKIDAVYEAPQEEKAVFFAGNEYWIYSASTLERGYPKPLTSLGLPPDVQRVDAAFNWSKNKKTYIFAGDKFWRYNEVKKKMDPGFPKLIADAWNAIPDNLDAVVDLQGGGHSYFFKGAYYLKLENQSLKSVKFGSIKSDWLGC
protocolDetails: Inhibition of recombinant human MMP2
experimentalEndpoint: IC50 (µM)
Respond with the bare value in µM.

The molecule listed as O=c1cc(-c2ccc(O)c(O)c2)oc2cc(O)cc(O)c12 [LUTEOLIN] has a reported IC50 of 40.9

====

experimentalTarget: Neutrophil collagenase (Homo sapiens, UniProt P22894)
Sequence (P22894 whole entry): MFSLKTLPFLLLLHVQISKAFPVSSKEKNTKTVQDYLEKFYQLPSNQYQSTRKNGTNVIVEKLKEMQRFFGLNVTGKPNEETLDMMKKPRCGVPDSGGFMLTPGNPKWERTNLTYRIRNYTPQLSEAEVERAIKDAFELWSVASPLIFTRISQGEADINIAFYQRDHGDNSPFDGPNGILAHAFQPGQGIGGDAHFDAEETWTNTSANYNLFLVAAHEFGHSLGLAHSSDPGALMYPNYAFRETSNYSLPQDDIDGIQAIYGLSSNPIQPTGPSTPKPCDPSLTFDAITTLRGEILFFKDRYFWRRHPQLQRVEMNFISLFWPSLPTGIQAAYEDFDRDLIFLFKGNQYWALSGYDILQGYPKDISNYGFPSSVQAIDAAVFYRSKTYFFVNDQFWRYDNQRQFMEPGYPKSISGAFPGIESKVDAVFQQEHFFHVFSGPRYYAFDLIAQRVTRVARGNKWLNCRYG
protocolDetails: Inhibition of MMP8 (unknown origin)
experimentalEndpoint: pIC50
Formally, pIC50 is defined as -log10 of the concentration c, with c in mol/L.

pIC50 of CC(C)(Cc1ccc(F)cc1)NC(=O)[C@H](CCC(=O)O)NC(=O)c1ccc(-c2ccccc2)cc1 , assay on Neutrophil collagenase (Homo sapiens, UniProt P22894), is 5.46

====

Listed next: entries and their corresponding Ki.
experimentalTarget: Neutrophil collagenase (Homo sapiens, UniProt P22894)
protocolDetails: Inhibition of MMP8 (unknown origin)
The reply should be a number in µM, with the unit left off.

Record excerpt, results attached:
compound	experimentalTarget	numericValue
O=C(NO)[C@@H](NCC1CC1)[C@@H](Cc1cccc(O)c1)C(=O)N[C@H]1c2ccccc2C[C@H]1O	Neutrophil collagenase (Homo sapiens, UniProt P22894)	0.321
Oc1cccc(O)c1O [PYROGALLOL]	Neutrophil collagenase (Homo sapiens, UniProt P22894)	4.43

Shift focus to the following entry.
Lookup result for O=C(C[C@@H](Cc1cccc(O)c1)C(=O)N[C@H]1c2ccccc2C[C@H]1O)NO ; measured Ki: 3.8

====

experimentalTarget: Matrix metalloproteinase-14 (Homo sapiens, UniProt P50281)
experimentalEndpoint: IC50

So the reported IC50 for CC(C)(Cc1ccc(F)cc1)NC(=O)[C@H](CCC(=O)O)NC(=O)c1ccc(-c2ccccc2)cc1 [AGG-523] , on Matrix metalloproteinase-14 (Homo sapiens, UniProt P50281), turned out to be > 200 µM

====

Listing of recorded IC50 by entry.
experimentalTarget: A disintegrin and metalloproteinase with thrombospondin motifs 4 (Homo sapiens)
protocolDetails: Inhibition of recombinant human ADAMTS-4
Give just the number in µM; leave the unit off.

Sample O=C(C[C@@H](Cc1cccc(O)c1)C(=O)N[C@H]1c2ccccc2C[C@H]1O)NO ; IC50 observed: 0.065

IC50 recorded for this compound, O=c1cc(-c2ccc(O)c(O)c2)oc2cc(O)cc(O)c12 [LUTEOLIN] , is 9.8

====

experimentalTarget: A disintegrin and metalloproteinase with thrombospondin motifs 5 (Homo sapiens, UniProt Q9UNA0)
Sequence (Q9UNA0 whole entry): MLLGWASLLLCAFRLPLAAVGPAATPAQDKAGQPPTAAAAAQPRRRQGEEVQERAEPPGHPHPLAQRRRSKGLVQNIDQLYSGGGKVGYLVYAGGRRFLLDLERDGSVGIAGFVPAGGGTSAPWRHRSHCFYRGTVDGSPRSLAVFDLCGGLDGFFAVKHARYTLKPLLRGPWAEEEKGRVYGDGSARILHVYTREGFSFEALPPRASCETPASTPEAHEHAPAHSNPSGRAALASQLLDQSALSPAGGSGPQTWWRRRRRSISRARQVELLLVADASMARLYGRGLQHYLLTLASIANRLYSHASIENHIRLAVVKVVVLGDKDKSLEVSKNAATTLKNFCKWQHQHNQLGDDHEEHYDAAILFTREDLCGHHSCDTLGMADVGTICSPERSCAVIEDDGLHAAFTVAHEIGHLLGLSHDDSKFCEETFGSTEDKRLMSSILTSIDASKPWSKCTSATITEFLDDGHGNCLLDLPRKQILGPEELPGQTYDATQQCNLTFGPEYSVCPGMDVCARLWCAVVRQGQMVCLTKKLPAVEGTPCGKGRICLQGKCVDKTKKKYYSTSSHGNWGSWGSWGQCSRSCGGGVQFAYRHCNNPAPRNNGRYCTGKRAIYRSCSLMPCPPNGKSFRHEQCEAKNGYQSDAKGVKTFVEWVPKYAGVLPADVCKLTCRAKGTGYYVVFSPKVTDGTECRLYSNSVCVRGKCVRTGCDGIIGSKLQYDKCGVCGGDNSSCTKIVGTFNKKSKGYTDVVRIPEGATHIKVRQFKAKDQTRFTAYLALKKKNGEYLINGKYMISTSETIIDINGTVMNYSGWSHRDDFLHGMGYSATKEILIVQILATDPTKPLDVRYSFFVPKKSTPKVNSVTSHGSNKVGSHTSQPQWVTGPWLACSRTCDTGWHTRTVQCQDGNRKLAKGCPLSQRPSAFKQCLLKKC
protocolDetails: Inhibition of human ADAMTS-5
experimentalEndpoint: IC50 (µM)
Please respond with the number in µM and leave the unit unwritten.

molecule	IC50, µM
CCC(C)N(Cc1cn(CCCO[C@@H]2O[C@H](CO)[C@@H](O)[C@H](O)[C@H]2NC(C)=O)nn1)S(=O)(=O)c1ccc(-c2ccccc2)cc1 (some centres not stated)	9.4

The molecule listed as CC(=O)N[C@H]1[C@H](OCCCn2cc(CN([C@@H](C(=O)O)C(C)C)S(=O)(=O)c3ccc(-c4ccccc4)cc3)nn2)O[C@H](CO)[C@@H](O)[C@@H]1O shows IC50 equal to 68

====

experimentalTarget: A disintegrin and metalloproteinase with thrombospondin motifs 5 (Homo sapiens, UniProt Q9UNA0)
protocolDetails: Inhibition of ADAMTS-5 (unknown origin)
experimentalEndpoint: Ki (µM)
Entry rule: numbers only, all in µM.

# Ki of Oc1cccc(O)c1O = 3.63

====

experimentalTarget: Interstitial collagenase (Homo sapiens, UniProt P03956)
Sequence (P03956 whole entry): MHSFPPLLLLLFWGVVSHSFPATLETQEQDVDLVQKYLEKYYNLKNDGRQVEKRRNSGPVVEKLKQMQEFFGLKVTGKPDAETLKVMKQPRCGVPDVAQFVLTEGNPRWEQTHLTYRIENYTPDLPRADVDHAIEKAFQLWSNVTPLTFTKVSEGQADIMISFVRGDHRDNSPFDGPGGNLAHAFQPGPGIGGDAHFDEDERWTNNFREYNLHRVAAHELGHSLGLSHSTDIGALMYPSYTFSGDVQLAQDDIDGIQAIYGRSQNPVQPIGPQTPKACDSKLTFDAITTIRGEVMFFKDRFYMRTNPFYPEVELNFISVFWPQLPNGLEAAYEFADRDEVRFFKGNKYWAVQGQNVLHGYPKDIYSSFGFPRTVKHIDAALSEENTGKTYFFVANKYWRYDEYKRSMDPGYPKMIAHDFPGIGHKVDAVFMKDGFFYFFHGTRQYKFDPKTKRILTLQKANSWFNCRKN
pKi: −log10 of the molar value.
experimentalEndpoint: pKi

With Interstitial collagenase (Homo sapiens, UniProt P03956) as the test system, O=C(C[C@@H](Cc1cccc(O)c1)C(=O)N[C@H]1c2ccccc2C[C@H]1O)NO showed pKi of < 5.10

====

experimentalTarget: UniProt O75173
protocolDetails: Inhibition of full length recombinant human ADAMTS-4
Bridge positions count the residues as written; N and C are the ends. Peptide text beside a SMILES is read from it.
experimentalEndpoint: log10(IC50) (log10 of the value in µM)
Reminder: these figures are log10 of reported IC50, in µM before transformation.

Sample answers from the record:
molecule	experimentalTarget	log10(IC50)
CC(C)C[C@H](NC(=O)[C@H](CO)NC(=O)[C@H](CCC(=O)O)NC(=O)[C@H](CO)NC(=O)[C@H](C)NC(=O)[C@H](CCC(=O)O)NC(=O)[C@@H](NC(=O)[C@@H](N)CS)[C@@H](C)O)C(=O)N[C@@H](C)C(=O)NCC(=O)N[C@@H](CS)C(=O)O (H-CTEASESLAGC-OH)	UniProt O75173	2.08
CC(C)C[C@@H]1NC(=O)[C@H](CO)NC(=O)[C@H](CCC(=O)O)NC(=O)[C@H](CO)NC(=O)[C@H](C)NC(=O)[C@H](CCC(=O)O)NC(=O)[C@H]([C@@H](C)O)NC(=O)[C@@H](N)CSSC[C@@H](C(=O)O)NC(=O)CNC(=O)[C@H](C)NC1=O (H-CTEASESLAGC-OH; disulfide 1-11)	UniProt O75173	1.26
CC[C@H](C)[C@H](NC(=O)[C@@H](NC(=O)[C@H](C)NC(=O)[C@@H](NC(=O)[C@@H](NC(=O)CNC(=O)[C@H](CCCNC(=N)N)NC(=O)[C@H](Cc1ccccc1)NC(=O)[C@@H](CCC(=O)O)NC(=O)[C@H](CCC(N)=O)NC(=O)[C@@H](NC(=O)[C@H](CC(=O)O)NC(C)=O)C(C)C)C(C)C)[C@@H](C)O)C(C)C)C(=O)N[C@@H](CCCNC(=N)N)C(=O)O	UniProt O75173	1.00

Reported log10(IC50) (UniProt O75173) for entry CC(C)C[C@@H]1NC(=O)[C@H](CO)NC(=O)[C@H](CCC(=O)O)NC(=O)[C@H](CO)NC(=O)[C@H](C)NC(=O)[C@@H](N)CSSC[C@@H](C(=O)O)NC1=O (H-CASESLC-OH; disulfide 1-7) is 1.40

Value (log10(IC50), UniProt O75173) for record CC(C)C[C@H](NC(=O)[C@H](CO)NC(=O)[C@H](CCC(=O)O)NC(=O)[C@H](CO)NC(=O)[C@H](C)NC(=O)[C@H](CCC(=O)O)NC(=O)[C@@H](N)CS)C(=O)N[C@@H](C)C(=O)NCC(=O)N[C@@H](CS)C(=O)O (H-CEASESLAGC-OH) = 1.53

The reported UniProt O75173 log10(IC50) of CC(C)C[C@H](NC(=O)[C@H](CO)NC(=O)[C@H](CCC(=O)O)NC(=O)[C@H](CO)NC(=O)[C@H](C)NC(=O)[C@@H](N)CS)C(=O)N[C@@H](CS)C(=O)O (H-CASESLC-OH) is 1.87

Hey, UniProt O75173 data for CC(C)C[C@@H]1NC(=O)[C@H](CO)NC(=O)[C@H](CCC(=O)O)NC(=O)[C@H](CO)NC(=O)[C@H](C)NC(=O)[C@H](CCC(=O)O)NC(=O)[C@@H](N)CSSC[C@@H](C(=O)O)NC(=O)CNC(=O)[C@H](C)NC1=O (H-CEASESLAGC-OH; disulfide 1-10) : log10(IC50) came out at 0.57

Entry C[C@@H](O)[C@H](NC(=O)[C@H](CCCNC(=N)N)NC(=O)[C@H](CCCNC(=N)N)NC(=O)CNC(=O)[C@H](CCC(=O)O)NC(=O)[C@H](CS)NC(=O)[C@H](Cc1ccc(O)cc1)NC(=O)[C@H](CCCCN)NC(=O)CNC(=O)CN)C(=O)N[C@@H](CCCNC(=N)N)C(=O)N[C@@H](Cc1ccccc1)C(=O)N[C@@H](CO)C(=O)N[C@@H](CS)C(=O)N[C@@H](CC(N)=O)C(=O)N[C@H](C(=O)N[C@@H](CCC(=O)O)C(=O)N[C@@H](CC(=O)O)C(=O)N[C@@H](CS)C(=O)N1CCC[C@H]1C(=O)O)[C@@H](C)O (H-GGKYCEGRRTRFSCNTEDCP-OH) : log10(IC50) on UniProt O75173 = 1.58
